Each recorded value in this set is attributed to the supplement of paper PMC10567573.

B1: ZNF449 (parent)
chain: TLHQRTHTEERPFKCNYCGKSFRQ

Variants of: B1
ASSAY_INFO: protein stability index of a GFP-peptide fusion (GPS, HEK-293T) (PSI 1-6); higher = more stable;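 further: lentivirally expressed fusions sorted by FACS into six bins by GFP to DsRed ratio, PSI derived from sequencing read proportions per bin multiplied by bin number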
EXPERIMENTAL_CONTEXT: c terminus: a fixed tail appended
MEASURED_ENDPOINT: protein stability index
Give bare numbers.

>  <MUTATIONS>
R5T

>  <protein stability index>
2.45

$$$$
>  <MUTATIONS>
T1S

>  <protein stability index>
3.59

$$$$

Please give protein stability index for each item listed below.
1. S21I
2. H3N
3. K20A
4. H7T
5. E9R
6. N16F

**A:**
1: 2.26; 2: 2.62; 3: 1.97; 4: 2.8; 5: 2.26; 6: 2.75

Please give protein stability index for each item listed below.
1. G19M
2. K20I
3. R23L

**A:**
1: 2.73; 2: 2.1; 3: 2.4
